Known Kd of a selection of binders
target: HpNikR N32A (Helicobacter pylori G27, UniProt A1YSQ9 1-148, N32A); assay: fluorescence anisotropy; Ni(II)-bound; FA: 5 nM DNA, 20 mM Tris pH 7.6, 100 mM NaCl, 3 mM MgSO4, temperature not stated (Ni loading 1.2 eq NiSO4 per monomer at RT). EMSA: 20 mM Tris pH 7.5, 100 mM KCl, 3 mM MgCl2, 0.1% IGEPAL, 5% glycerol, 0.1 mg/ml herring sperm DNA, RT; gel with 800 uM NiSO4 at 4 C; details: protein: recombinant; tags: none stated; chain copies: 4; label: fluorescein on internal thymine (T14 of strand 1); blunt
observationType: Kd (nM)

> print(dat)
                                     binder  val
1  ureA-perf promoter 32 bp (dsDNA) DNA 1: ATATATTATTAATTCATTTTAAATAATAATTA DNA 2: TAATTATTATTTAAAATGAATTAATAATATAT  1.3
2  ureA promoter 32 bp (FA) (dsDNA) DNA 1: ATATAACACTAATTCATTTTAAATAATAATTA DNA 2: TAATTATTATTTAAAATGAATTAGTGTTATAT  4.8
